Tested on: L1210
ASSAY TEXT: Antitumor activity against mouse L1210 cells assessed as inhibition of [3H]thymidine uptake after 48 hrs
Type: functional, cell-based
RECORDED METRIC: IC50 (nM)
Field: numeric (nM). Do not append units.

Some solved cases for reference:
COc1cccc2c1C(=O)c1c(O)c3c(c(O)c1C2=O)C[C@@](O)(C(=O)CO)C[C@@H]3O[C@H]1C[C@H](N)[C@H](O)[C@H](C)O1 [DOXORUBICIN] | 182
O=C(CCCCCN1C(=O)C=CC1=O)Oc1cc2c(c3ccccc13)[C@H](CCl)CN2C(=O)c1cc2cc(NC(=O)c3cc4cc(F)ccc4[nH]3)ccc2[nH]1 | 25

Query block: Find the recorded IC50 belonging to O=C(Nc1ccc2[nH]c(C(=O)N3C[C@@H](CCl)c4c3cc(O)c3ccccc43)cc2c1)c1cc2cc(F)ccc2[nH]1 and report it.
Result block: 0.17
